System: rodent lifetime carcinogenesis bioassay, tumor incidence TD50
test protocol: carcinogenic potency in animals, long-term in vivo studies, CPDB compilation (AID 1745844)
reported conditions: mouse; strain ICI; males; by gavage; site: liver; lesion: one or several types; types not named; dosed 80 weeks; study length 96 weeks
The source made the active and inactive calls. No rule for the calls is given here.
measure name: TD50

Problem: Bench note: what TD50 did `ClC(Cl)Cl` show?
Solution: 324 mg/kg/day (inactive)

====

Tested on: rodent lifetime carcinogenesis bioassay, tumor incidence TD50
test protocol: carcinogenic potency in animals, long-term in vivo studies, CPDB compilation (AID 1745844)
reported conditions: rat; strain Fischer 344; females; by gavage; site: mammary gland; lesion: adenocarcinoma; dosed 91 weeks; study length 105 weeks
measure name: TD50

Problem: # returns recorded TD50 (system: rodent lifetime carcinogenesis bioassay, tumor incidence TD50) for `ClCC(Cl)CCl`
Solution: 5.91 mg/kg/day

====

Test system: rodent lifetime carcinogenesis bioassay, tumor incidence TD50
test protocol: carcinogenic potency in animals, long-term in vivo studies, CPDB compilation (AID 1745844)
reported conditions: mouse; strain Ha/ICR; males; inhaled; site: lung; lesion: adenoma; dosed 26 weeks; study length 108 weeks
measure name: TD50

Problem: Bench note: what TD50 did `ClCOCCl` show?
Solution: 1.26 mg/kg/day

====

Tested on: rodent lifetime carcinogenesis bioassay, tumor incidence TD50
test protocol: carcinogenic potency in animals, long-term in vivo studies, CPDB compilation (AID 1745844)
reported conditions: mouse; strain B6AKF1; females; oral dosing; site: lung; lesion: adenoma; dosed 80 weeks; study length 80 weeks
measure name: TD50 (mg/kg/day)
Entry rule: numbers only, all in mg/kg/day.

Problem: Bench note: what TD50 did CC(COc1ccc(C(C)(C)C)cc1)OS(=O)OCCCl (stereo unspecified) show?
Solution: 432

====

Test system: rodent lifetime carcinogenesis bioassay, tumor incidence TD50
test protocol: carcinogenic potency in animals, long-term in vivo studies, CPDB compilation (AID 1745844)
reported conditions: mouse; strain Swiss; females; in drinking water; site: tongue; lesion: squamous-cell carcinoma; dosed 78 weeks; study length 151 weeks
measure name: TD50

Problem: Bench note: what TD50 did `C=COC(C)=O` show?
Solution: 8760 mg/kg/day

====

Tested on: rodent lifetime carcinogenesis bioassay, tumor incidence TD50
test protocol: carcinogenic potency in animals, long-term in vivo studies, CPDB compilation (AID 1745844)
reported conditions: rat; strain Fischer 344; males; in drinking water; site: liver; lesion: cholangiocarcinoma; dosed 48 weeks; study length 95 weeks
measure name: TD50

Problem: Bench note: what TD50 did `O=NN(CCO)CCO` show?
Solution: 23.9 mg/kg/day

====

Known TD50 of a selection of molecules
System: rodent lifetime carcinogenesis bioassay, tumor incidence TD50
test protocol: carcinogenic potency in animals, long-term in vivo studies, CPDB compilation (AID 1745844)
reported conditions: mouse; strain B6C3F1; males; by gavage; site: lung; lesion: alveolar/bronchiolar adenoma; dosed 103 weeks; study length 105 weeks

CC(CCl)OC(C)CCl (configuration not stated): 306 mg/kg/day

Next, consider the following molecule.
Problem: Bench note: what TD50 did `C=CC(=O)NCO` show?
Solution: 66 mg/kg/day

====

System: rodent lifetime carcinogenesis bioassay, tumor incidence TD50
test protocol: carcinogenic potency in animals, long-term in vivo studies, CPDB compilation (AID 1745844)
reported conditions: rat; strain Sprague-Dawley; females; in feed; site: several sites; sites named in the paper; lesion: several types; types named in the paper; dosed 78 weeks; study length 104 weeks
measure name: TD50

Problem: Bench note: what TD50 did `CCOc1ccc(NC(C)=O)cc1` show?
Solution: 2730 mg/kg/day
